Origin of values: paper PMC7734625

Collected tissue to tissue ratio at 4 h values appear next to each entry.
test protocol: biodistribution in A431-CCK2R/A431-mock xenografted BALB/c nude mice
Type: in vivo
conditions used: female, athymic BALB/c nude, mouse, tumor/blood, iv, 150 pmol, total radioactivity, 150 pmol, 4 h p.i.; read-out: tumor-to-blood ratio
Non-standard residues stand in square brackets, D forms with d. Residues, ends and D or L forms follow the SMILES beside them. *: point of attachment. DOTA = O=C(O)CN1CCN(CC(=O)O)CCN(CC(=O)*)CCN(CC(=O)O)CC1; 1Nal = N[C@@H](Cc1cccc2ccccc12)C(=O)O; NMeNle = CCCC[C@H](NC)C(=O)O
Form field (numeric): enter value without unit.

compound: CCCC[C@@H](C(=O)N[C@@H](CC(=O)O)C(=O)N[C@@H](Cc1cccc2ccccc12)C(N)=O)N(C)C(=O)[C@H](Cc1c[nH]c2ccccc12)NC(=O)CNC(=O)[C@@H]1CCCN1C(=O)[C@H](Cc1ccc(O)cc1)NC(=O)[C@@H](CCC(=O)O)NC(=O)CN1CCN(CC(=O)O)CCN(CC(=O)O)CCN(CC(=O)O)CC1 [[^177Lu]Lu-2, metal not drawn] ({DOTA}-[dE]YPGW[NMeNle]D[1Nal]-NH2)
endpoint label: tissue to tissue ratio at 4 h
result value: 188

Looking for the measured tissue to tissue ratio at 4 h of CCCC[C@@H](C(=O)N[C@@H](CC(=O)O)C(=O)N[C@@H](Cc1cccc2ccccc12)C(N)=O)N(C)C(=O)[C@H](Cc1c[nH]c2ccccc12)NC(=O)CNC(=O)[C@H](Cc1ccc(O)cc1)NC(=O)[C@@H]1CCCN1C(=O)[C@@H](CCC(=O)O)NC(=O)CN1CCN(CC(=O)O)CCN(CC(=O)O)CCN(CC(=O)O)CC1 [[^177Lu]Lu-1, metal not drawn] ({DOTA}-[dE]PYGW[NMeNle]D[1Nal]-NH2) , can you help? 294
